His-Brd4(44-477) (Homo sapiens (Human)): recorded pIC50 for assorted molecules
Hey, just a heads up that pIC50 is the negative log base 10 of the concentration in molar.

Qu. What measured pIC50 is associated with Cc1nn(-c2ccnn2C)c2c1C(c1ccc(Cl)cc1)N(c1cc(C)c3nnc(C)n3n1)C2=O (centres unmarked) on His-Brd4(44-477) (Homo sapiens (Human))?
Ans. 7.57

Qu. Quick one: COc1c2c(nn1C)C(=O)N(c1cc(C)c(=O)n(C)c1)C2c1ccc(Cl)cc1 (centres unmarked)
Ans. 6.89

Qu. Quick one: Cc1nn(C(=O)N(C)C)c2c1C(c1ccc(Cl)cc1)N(c1cc(C)c(=O)n(C)c1)C2=O (centres unmarked)
Ans. 6.72

Qu. Quick one: Cc1cc(N2C(=O)c3nn(C4CNC4)c(C)c3C2c2ccc(Cl)cc2)cn2c(C)nnc12 (centres unmarked)
Ans. 7.11

Qu. Quick one: Cc1n[nH]c2c1C(c1ccc(Cl)cc1F)N(c1cc(C)c3nnc(C)n3c1)C2=O (centres unmarked)
Ans. 7.09
